# System: 3T3 cells
# protocol-summary: MTT cell proliferation assay, 3T3 cells
# Type: cell-based
# assay-setup: Mus musculus, NIH3T3; 3T3 fibroblast cells; approximately 64-72 hours incubation
Listed next: entries and their corresponding IC50.
measured-quantity: IC50

INSERT INTO results (chemical_string, experimental_system, measured_quantity, experimental_value) VALUES
  ('Nc1ccc(/C=C/C(=O)NCc2cc3cc(-c4ccc(C(=O)N5CCC(F)(F)CC5)cc4)cc(Oc4cccc(F)c4)c3o2)cn1', '3T3 cells', 'IC50', '100 to 5000 nM'),
  ('Nc1ccc(/C=C/C(=O)NCc2cc3cc(-c4ccc(C(=O)N5CCC(F)(F)CC5)cc4)cc(OC4CCC4)c3o2)cn1', '3T3 cells', 'IC50', '100 to 5000 nM'),
  ('Nc1ccc(/C=C/C(=O)NCc2cc3cc(-c4ccc(C(=O)N5CCC(F)(F)CC5)cc4F)cc(OC4CCC4)c3o2)cn1', '3T3 cells', 'IC50', '100 to 5000 nM');
